# experimentalTarget: Potassium voltage-gated channel subfamily KQT member 1 (Homo sapiens)
# protocolDetails: KCNQ1 potassium channel potentiators, confirmation, FluxOR thallium flux, CHO cells, duplicates (AID 493007);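 on Outcome: cells depolarized by a potassium plus thallium sulfate stimulus after compound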
# measurementContext: KCNQ1 cell line, FluxOR thallium flux fluorescence, at 10 µM, % of reference activator effect, buffer zero
The source made the active and inactive calls.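 How the source made its calls: active means potentiation averaged over duplicate wells exceeding buffer-only control mean by more than 3 SD; inactive means the rest.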
Outcome codes: active, inactive

> print(dat)
                                    compound                        experimentaltarget  assignedcategory
 1  CCCCn1c(=O)nc2n(-c3ccccc3C)c3ccccc3cc-2c1=O  Potassium voltage-gated channel subfamily KQT member 1 (Homo sapiens)          inactive
 2  CC(=O)c1ccc(N2CCN(C(=O)c3ccc(NC(=O)C4CCCO4)cc3)CC2)cc1 (stereo not given)  Potassium voltage-gated channel subfamily KQT member 1 (Homo sapiens)          inactive
 3  COC(=O)CCCC[C@@H]1SC[C@@H](NC(=O)OC)[C@@H]1NC(=O)OC  Potassium voltage-gated channel subfamily KQT member 1 (Homo sapiens)          inactive
 4  COc1ccc(C(=O)/C=C/C(=O)N(CC(=O)NC2CCCCC2)Cc2ccccc2)c(O)c1  Potassium voltage-gated channel subfamily KQT member 1 (Homo sapiens)            active
 5  O=C(c1ccc(COc2c(F)c(F)cc(F)c2F)o1)N1CCN(c2ccc(Cl)cc2)CC1  Potassium voltage-gated channel subfamily KQT member 1 (Homo sapiens)          inactive
 6          NC(=O)NC(=O)C[n+]1cccc(/C=N/O)c1  Potassium voltage-gated channel subfamily KQT member 1 (Homo sapiens)          inactive
 7      CCc1ccc(NC(=O)/C(C#N)=C/c2ccncc2)cc1  Potassium voltage-gated channel subfamily KQT member 1 (Homo sapiens)          inactive
 8  Cc1cc(C(=O)NCc2ccc(S(N)(=O)=O)cc2)ccc1[N+](=O)[O-]  Potassium voltage-gated channel subfamily KQT member 1 (Homo sapiens)          inactive
 9  CCC1(CC)Cc2ccccc2-c2[nH]c(=S)[nH]c(=O)c21  Potassium voltage-gated channel subfamily KQT member 1 (Homo sapiens)          inactive
10  CC(/C=C1\SC(=S)N(NS(=O)(=O)c2ccccc2)C1=O)=C\c1ccccc1  Potassium voltage-gated channel subfamily KQT member 1 (Homo sapiens)            active

----------
# protocolDetails: calcium flux inhibitors in TRPC4/5HT1a cells, confirmation, counter-screen for TRPC4 inhibitor project, cell-based, second counter screen, HEK293 TRPC4/5HT1a, Fluo-4 (AID 434978);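 on Outcome: serotonin given first at submaximal then at maximal dose after compound preincubation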
# measurementContext: Fluo-4 calcium flux, at 10 µM, serotonin added to trigger calcium flux
Calls of active or inactive are those of the source.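 The calls were made as follows: active = primary screen active whose calcium signal fell more than 3 SD beyond the full-serotonin control mean in both duplicate plates; inactive = the rest.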
Outcome codes: 1 = active, 0 = inactive

> print(dat)
                                    compound  assignedcategory
 1   O=C(c1c(F)cccc1F)N1CCN(c2ncc(Br)cn2)CC1                 0
 2  O=C(NCc1cccnc1)C1CCCN(Cc2cnn(-c3ccccc3)c2-n2cccc2)C1 (configuration not stated)                 0
 3  O=C(NCCCN1CCN(CCCNC(=O)c2ccc3c(c2)OCO3)CC1)c1ccc2c(c1)OCO2                 0
 4  CCOC(=O)C1=NN(C(=O)c2ccc(C)cc2)C(O)(c2ccc(Cl)cc2)C1 (configuration not stated)                 0
 5  Cc1onc(-c2c(F)cccc2Cl)c1C(=O)N1CCN(c2ncc(Br)cn2)CC1                 0
 6  FC(F)(F)c1cnc(N2CCCN(C(=S)Nc3ccccc3)CC2)c(Cl)c1                 0
 7           OCCN1CCN(Cc2cc(Br)cc(Br)c2O)CC1                 0
 8  COc1ccccc1C(=O)NNC(=S)NC(=O)c1sc2ccccc2c1Cl                 1
 9        C=CCn1c(CCNC(=O)c2ccco2)nc2ccccc21                 0
10  Cc1nc(NCC(c2ccccc2)N(C)C)c2c(C)c(C)sc2n1 (configuration not stated)                 0
11  CCOC(=O)C1(CC2CC2)CCN(Cc2ccc(O)c(Cl)c2)CC1                 0
12  C/C(=N/NC(=O)c1ccc(Cn2cccn2)o1)c1cccc(NC(=O)c2ccncc2)c1                 0
13  CCCN(CCC)CCCNC(=O)C1CCC(CNS(=O)(=O)c2cccc3nsnc23)CC1 (configuration not stated)                 0
14     O=C(COc1ccc(Br)cc1CNC1CCCC1)Nc1ccccc1                 0
15  COc1ccc(CCN(C)CCN2C(=O)c3ccccc3C2=O)cc1OC                 1
16  CCN1CCN(c2ccc(S(=O)(=O)N3CCCCC3)cc2NC(=O)C(C)Oc2ccc(F)cc2)CC1 (configuration not stated)                 0
17  O=C(NNC(=S)NC(=O)C12CC3CC(CC(C3)C1)C2)c1ccncc1                 0
18  Cc1cc(C)cc(C(=O)N(CCc2ccccc2)C2=CC3CCC(C2)N3C)c1 (configuration not stated)                 0
19  CCN(CCCNS(=O)(=O)c1cc(-c2cc(C)no2)ccc1C)Cc1ccccc1                 0
20    COc1ccc(C(=O)NNC(=S)NC(=O)c2ccccc2)cc1                 0
21     O=C(C[n+]1cc2ccccc2c2ccccc21)c1ccccc1                 1
22  CN(C)CCCN(C(=O)c1ccc(S(=O)(=O)N(C)Cc2ccccc2)cc1)c1nc2cc3c(cc2s1)OCO3                 0

These entries and their values trace back to PubChem BioAssay.
